# experimental_details: in vivo
# recorded_conditions: plasma; rat, intraduodenal 100 mg/kg, 180 min
Documented concentration at 3 h across a set of molecules

structure_smiles: CS(=O)(=O)N1CCN(C(=O)[C@H](Cc2cccc(C(=N)N)c2)NS(=O)(=O)c2ccc3ccccc3c2)CC1.Cl
endpoint_unit: ng/mL
concentration at 3 h: 297

structure_smiles: CC(=O)N1CCN(C(=O)[C@H](Cc2cccc(C(=N)N)c2)NS(=O)(=O)c2ccc3ccccc3c2)CC1.Cl
endpoint_unit: ng/mL
concentration at 3 h: 2600

structure_smiles: CN(C)C(=O)N1CCN(C(=O)[C@H](Cc2cccc(C(=N)N)c2)NS(=O)(=O)c2ccc3ccccc3c2)CC1
endpoint_unit: ng/mL
concentration at 3 h: 2060

* * *

# experimental_details: plasma level in the stasis-induced thrombosis study, rectal application
# Assay type: in vivo
# recorded_conditions: rat, rectal 20 mg/kg, 60 min
assay_metric: concentration at 1 h (ng/mL)

structure_smiles: CC(=O)N1CCN(C(=O)[C@H](Cc2cccc(C(=N)N)c2)NS(=O)(=O)c2ccc3ccccc3c2)CC1.Cl
assay_metric: concentration at 1 h
endpoint_unit: ng/mL
test_result: 998

* * *

# Tested on: coagulation in human plasma
# experimental_details: activated partial thromboplastin time (aPTT) in human plasma
Counter-ions that a name gives are not always drawn.

compound: CN(C)C(=O)N1CCN(C(=O)[C@H](Cc2cccc(C(=N)N)c2)NS(=O)(=O)c2ccc3ccccc3c2)CC1
Concentr. to double the aPTT (µmol/L): 0.3

compound: Cl.Cl.N=C(N)c1cccc(C[C@H](NS(=O)(=O)c2ccc3ccccc3c2)C(=O)N2CCN(CCO)CC2)c1
Concentr. to double the aPTT (µmol/L): 0.65

compound: CC(=O)N1CCN(C(=O)[C@H](Cc2cccc(C(=N)N)c2)NS(=O)(=O)c2ccc3ccccc3c2)CC1.Cl
Concentr. to double the aPTT (µmol/L): 0.36

compound: CCOC(=O)N1CCN(C(=O)C(Cc2cccc(C(=N)N)c2)NS(=O)(=O)c2ccc3ccccc3c2)CC1 (racemic) [X, reference compound]
Concentr. to double the aPTT (µmol/L): 20

compound: COc1cc(C)c(S(=O)(=O)N[C@@H](Cc2cccc(C(=N)N)c2)C(=O)N2CCN(S(C)(=O)=O)CC2)c(C)c1C
Concentr. to double the aPTT (µmol/L): 0.57

compound: CC1(C)C2CCC1(CS(=O)(=O)N[C@@H](Cc1cccc(C(=N)N)c1)C(=O)N1CCN(S(C)(=O)=O)CC1)C(=O)C2 (single isomer, unassigned) [Compound 7]
Concentr. to double the aPTT (µmol/L): 0.55

compound: Cc1c(C)c(S(=O)(=O)N[C@@H](Cc2cccc(C(=N)N)c2)C(=O)N2CCN(S(C)(=O)=O)CC2)c(C)c2c1OC(C)(C)CC2 [Compound 10, hydrochloride]
Concentr. to double the aPTT (µmol/L): 0.44

compound: CC(=O)N1CCN(C(=O)C(Cc2cccc(C(=N)N)c2)NS(=O)(=O)c2ccc3ccccc3c2)CC1 (centres unmarked)
Concentr. to double the aPTT (µmol/L): 0.90

compound: CS(=O)(=O)N1CCN(C(=O)[C@H](Cc2cccc(C(=N)N)c2)NS(=O)(=O)c2ccc3ccccc3c2)CC1.Cl
Concentr. to double the aPTT (µmol/L): 0.26

compound: CC(=O)N1CCN(C(=O)C(Cc2cccc(C(=N)N)c2)NS(=O)(=O)c2ccc3c(c2)C(=O)c2ccccc2C3=O)CC1 (centres unmarked)
Concentr. to double the aPTT (µmol/L): 1.2

compound: CC1(C)C2CCC1(CS(=O)(=O)N[C@@H](Cc1cccc(C(=N)N)c1)C(=O)N1CCN(S(C)(=O)=O)CC1)C(=O)C2 (single isomer, unassigned) [Compound 8]
Concentr. to double the aPTT (µmol/L): 1.2
